target: T1, dimeric human PRLR (hPRLR.mFc; SEQ ID NO:402) (Homo sapiens, UniProt P16471); assay: Surface plasmon resonance (Biacore T200), antibody-capture format; format: binding; settings: 37° C., analyte hPRLR.mFc
T1 construct: dimeric (hPRLR.mFc)
T1 sequence (P16471 with tags, fused parts or gaps): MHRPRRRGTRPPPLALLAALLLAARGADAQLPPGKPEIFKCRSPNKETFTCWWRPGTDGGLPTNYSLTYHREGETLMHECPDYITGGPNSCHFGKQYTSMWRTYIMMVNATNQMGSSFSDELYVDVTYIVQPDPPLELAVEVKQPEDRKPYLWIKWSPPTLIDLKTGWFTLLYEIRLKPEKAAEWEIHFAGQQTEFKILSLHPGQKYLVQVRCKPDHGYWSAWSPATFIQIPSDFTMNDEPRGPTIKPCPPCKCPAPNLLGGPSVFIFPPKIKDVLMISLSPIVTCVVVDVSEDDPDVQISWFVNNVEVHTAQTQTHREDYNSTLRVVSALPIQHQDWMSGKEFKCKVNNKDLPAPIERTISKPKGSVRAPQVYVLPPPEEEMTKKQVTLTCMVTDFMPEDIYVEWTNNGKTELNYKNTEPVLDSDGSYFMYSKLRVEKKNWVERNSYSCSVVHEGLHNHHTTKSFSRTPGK
Hi there, I'd appreciate the recorded ka for every entry that follows.
Answers are plain numbers, in M/s.

H1H6803P: fully human anti-PRLR antibody, human IgG1 Fc; HCVR/LCVR SEQ ID NOs 226/234 (antibody, V domains shown) VH: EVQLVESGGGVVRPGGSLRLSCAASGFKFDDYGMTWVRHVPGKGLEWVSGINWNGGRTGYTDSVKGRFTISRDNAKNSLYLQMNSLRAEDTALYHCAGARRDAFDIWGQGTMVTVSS VL: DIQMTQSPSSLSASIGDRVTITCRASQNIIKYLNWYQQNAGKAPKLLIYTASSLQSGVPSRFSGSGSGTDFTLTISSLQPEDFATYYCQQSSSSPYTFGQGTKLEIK; 134000

Lookup result for H1H6793P: fully human anti-PRLR antibody, human IgG1 Fc; HCVR/LCVR SEQ ID NOs 146/154 (antibody, V domains shown) VH: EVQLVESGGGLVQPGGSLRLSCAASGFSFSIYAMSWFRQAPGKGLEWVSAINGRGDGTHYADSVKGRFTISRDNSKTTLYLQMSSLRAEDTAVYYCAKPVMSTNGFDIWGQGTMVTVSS VL: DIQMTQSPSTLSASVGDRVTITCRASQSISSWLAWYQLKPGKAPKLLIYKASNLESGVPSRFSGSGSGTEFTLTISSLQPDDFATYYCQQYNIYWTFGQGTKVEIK ; measured ka: 410000
